The values you see were collected from patent US20110195911A1.

Quick reference for TGI among some molecules
test system: MCF-7 breast cancer cells; assay: MTT cell toxicity assay in MCF-7 breast cancer cells; format: cell-based; conditions: MCF-7 cells, MTT, final 0.5% FBS, two days with compound; concentration of total growth inhibition (cytostatic)
Where a SMILES comes first, the peptide text is derived from it. [ ]: non-standard residue; d: D form. The star is where a group is joined. Palmitoyl = CCCCCCCCCCCCCCCC(=O)*
A number alone suffices; assume nM.

Here's what some known entries look like.
[[record]]
molecule = "CCCCCCCCCCCCCCCC(=O)N[C@@H](CO)C(=O)N[C@@H](CCCNC(=N)N)C(=O)N[C@@H](CC(C)C)C(=O)NCC(=O)N[C@@H](CC(N)=O)C(=O)NCC(=O)N[C@H](C(=O)N[C@@H](CC(C)C)C(=O)N[C@@H](Cc1ccc(O)cc1)C(N)=O)C(C)C [Peptide 19, Pal-SRLGNGVLY-NH2] (Palmitoyl-SRLGNGVLY-NH2)"
recorded_value = 2000

[[record]]
molecule = "CCCCCCCCCCCCCCCC(=O)N[C@@H](CCCCN)C(=O)N[C@@H](CCCNC(=N)N)C(=O)N[C@@H](CC(N)=O)C(=O)N[C@@H](CC(N)=O)C(=O)N[C@@H](CO)C(=O)N[C@@H](CCCNC(=N)N)C(=O)N[C@@H](CC(C)C)C(=O)NCC(=O)N[C@@H](CC(N)=O)C(=O)NCC(=O)N[C@H](C(=O)N[C@@H](CC(C)C)C(=O)N[C@@H](Cc1ccc(O)cc1)C(N)=O)C(C)C [Peptide 27, Pal-KRNNSRLGNGVLY-NH2] (Palmitoyl-KRNNSRLGNGVLY-NH2)"
recorded_value = 2500


# context switch: different molecule, same TGI
Record CCCCCCCCCCCCCCCC(=O)N[C@H](Cc1ccc(O)cc1)C(=O)N[C@H](CC(C)C)C(=O)N[C@@H](C(=O)NCC(=O)N[C@H](CC(N)=O)C(=O)NCC(=O)N[C@H](CC(C)C)C(=O)N[C@H](CCCNC(=N)N)C(=O)N[C@H](CO)C(=O)N[C@H](CC(N)=O)C(=O)N[C@H](CC(N)=O)C(=O)N[C@H](CCCNC(=N)N)C(N)=O)C(C)C [Peptide 22, Pal-YLVGNGLRSNNR-NH2] (Palmitoyl-[dY][dL][dV]G[dN]G[dL][dR][dS][dN][dN][dR]-NH2) has MCF-7 breast cancer cells TGI equal to 500

----------
Measured GI50, listed per entry for reference.
system: MCF-7 breast cancer cells; assay: MTT cell toxicity assay in MCF-7 breast cancer cells; type: cell-based; details: MCF-7 cells, MTT, final 0.5% FBS, two days with compound
Where a SMILES comes first, the peptide text is derived from it. The star is where a group is joined. Palmitoyl = CCCCCCCCCCCCCCCC(=O)*

[[record]]
molecule = "CCCCCCCCCCCCCCCC(=O)N[C@@H](CCCNC(=N)N)C(=O)N[C@@H](CCC(N)=O)C(=O)N1CCC[C@H]1C(=O)N[C@@H](CC(=O)O)C(=O)NCC(=O)N1CCC[C@H]1C(=O)N[C@@H](CC(C)C)C(=O)NCC(=O)N1CCC[C@H]1C(=O)N[C@@H](CC(C)C)C(=O)N[C@@H](Cc1ccc(O)cc1)C(N)=O [IR-2, Pal-RQPDGPLGPLY-NH2] (Palmitoyl-RQPDGPLGPLY-NH2)"
measure = "GI50"
recorded_value = "60 nM"


The recorded GI50 for entry CCCCCCCCCCCCCCCC(=O)N[C@@H](CCCCN)C(=O)N[C@@H](CCCNC(=N)N)C(=O)N[C@@H](CC(N)=O)C(=O)N[C@@H](CC(N)=O)C(=O)N[C@@H](CO)C(=O)N[C@@H](CCCNC(=N)N)C(=O)N[C@@H](CC(C)C)C(=O)NCC(=O)N[C@@H](CC(N)=O)C(=O)NCC(=O)N[C@H](C(=O)N[C@@H](CC(C)C)C(=O)N[C@@H](Cc1ccc(O)cc1)C(N)=O)C(C)C [Peptide 27, Pal-KRNNSRLGNGVLY-NH2] (Palmitoyl-KRNNSRLGNGVLY-NH2) equals 1100 nM

The measured GI50 associated with CCCCCCCCCCCCCCCC(=O)N[C@@H](CCCNC(=N)N)C(=O)N[C@@H](CC(N)=O)C(=O)N[C@@H](CC(N)=O)C(=O)N[C@@H](CO)C(=O)N[C@@H](CCCNC(=N)N)C(=O)N[C@@H](CC(C)C)C(=O)NCC(=O)N[C@@H](CC(N)=O)C(=O)NCC(=O)N[C@H](C(=O)N[C@@H](CC(C)C)C(=O)N[C@@H](Cc1ccc(O)cc1)C(N)=O)C(C)C [Peptide 16, Pal-RNNSRLGNGVLY-NH2] (Palmitoyl-RNNSRLGNGVLY-NH2) reads 70 nM
